- ASSAYED SYSTEM: T1, human pro-EMAPII (human, UniProt Q12904 1-312)
- T1 chain: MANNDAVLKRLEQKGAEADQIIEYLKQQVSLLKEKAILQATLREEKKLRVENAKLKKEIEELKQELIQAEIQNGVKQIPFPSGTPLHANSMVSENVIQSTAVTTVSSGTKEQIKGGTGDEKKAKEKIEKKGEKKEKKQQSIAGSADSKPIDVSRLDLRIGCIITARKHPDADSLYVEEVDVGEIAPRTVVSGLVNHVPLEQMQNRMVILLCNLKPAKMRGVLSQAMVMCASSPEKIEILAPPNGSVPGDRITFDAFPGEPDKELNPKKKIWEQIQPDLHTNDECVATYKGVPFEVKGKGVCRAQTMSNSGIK
- ASSAY EXPLANATION: ELISA
Here the recorded EC50 is given for each entry.
QUANTITY: EC50 (µg/mL)

- BINDER: "Chimeric Parental (antibody, V domains shown) VH: AVHLVESGGGFVQPTESLKISCAASGFTFSDAAMYWVRQAPGKGLEWVARIRTKPNNYATYYADSVKGRFTISRDDSKSMVYLQMDNLKTEDTAMYYCTSWSYDFDYWGQGVMVTVSS VL: DIVMTQGALPNPVPSGESASITCQSSKSLLHSSGKTYLNWYLQRPGQSPHLLIYWMSTRASGVSDRLSGSGSGTDFTLKISSVEAEDVGVYYCQQFLEYPLTFGSGTKLEIK"
  READOUT NUMBER: 0.361
- BINDER: "Humanized HC5 + LC1 (antibody, V domains shown) VH: AVQLVESGGGLVQPGGSLKLSCAASGFTFSDAAMYWVRQASGKGLEWVARIRTKPNNYATYYAASVKGRFTISRDDSNSTAYLQMNSLKTEDTAVYYCTSWSYDFDYWGQGTLVTVSS VL: DIVMTQSPLSLPVTPGEPASISCRSSKSLLHSSGKTYLNWYLQKPGQSPQLLIYWMSNRASGVPDRFSGSGSGTDFTLKISRVEAEDVGVYYCQQFLEYPLTFGQGTKLEIKR"
  READOUT NUMBER: 0.163
- BINDER: "Humanized HC1 + LC1 (antibody, V domains shown) VH: EVQLVESGGGLVQPGGSLKLSCAASGFTFSDAAMYWVRQASGKGLEWVGRIRTKPNNYATYYAASVKGRFTISRDDSKNTAYLQMNSLKTEDTAVYYCTSWSYDFDYWGQGTLVTVSS VL: DIVMTQSPLSLPVTPGEPASISCRSSKSLLHSSGKTYLNWYLQKPGQSPQLLIYWMSNRASGVPDRFSGSGSGTDFTLKISRVEAEDVGVYYCQQFLEYPLTFGQGTKLEIKR"
  READOUT NUMBER: 0.098
- BINDER: "Rat parental (antibody, V domains shown) VH: AVHLVESGGGFVQPTESLKISCAASGFTFSDAAMYWVRQAPGKGLEWVARIRTKPNNYATYYADSVKGRFTISRDDSKSMVYLQMDNLKTEDTAMYYCTSWSYDFDYWGQGVMVTVSS VL: DIVMTQGALPNPVPSGESASITCQSSKSLLHSSGKTYLNWYLQRPGQSPHLLIYWMSTRASGVSDRLSGSGSGTDFTLKISSVEAEDVGVYYCQQFLEYPLTFGSGTKLEIK"
  READOUT NUMBER: 3.6
